# System: PPARg:RXRa IVT, anti-PPARg (NR concentration 270 nM, RXRa partner concentration 90 nM)
# test.method.notes: PBM binding z-score (relative to random genomic background probes); higher = stronger binding; sequences stand for … in GC…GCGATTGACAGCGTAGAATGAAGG

{"monomer.sequence": "CCTAGTTGGTCAAGGTCACACATGCTATAGGTAC", "PBM binding z-score": 3.82}
{"monomer.sequence": "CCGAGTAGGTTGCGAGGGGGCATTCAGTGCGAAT", "PBM binding z-score": 2.13}
{"monomer.sequence": "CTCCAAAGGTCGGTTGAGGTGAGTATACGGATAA", "PBM binding z-score": 1.01}
{"monomer.sequence": "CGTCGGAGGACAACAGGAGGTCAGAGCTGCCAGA", "PBM binding z-score": 0.616}
{"monomer.sequence": "CTATGTAGGTTAAGGGGGTCAATCAGTTTGAAAG", "PBM binding z-score": 7.48}
{"monomer.sequence": "ATCGAACGGTCGAGGTGAGTATAGAGAAAGGGAA", "PBM binding z-score": 0.523}
{"monomer.sequence": "CAGCCTAGGTGAGGGCCAGTATAGGAGGAACGTT", "PBM binding z-score": 0.776}
{"monomer.sequence": "CTGTGTAGGTTAAGGGGGTCATTCAGTTTGAAAG", "PBM binding z-score": 6.16}
{"monomer.sequence": "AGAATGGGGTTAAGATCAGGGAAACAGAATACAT", "PBM binding z-score": 3.66}
{"monomer.sequence": "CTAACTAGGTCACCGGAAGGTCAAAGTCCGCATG", "PBM binding z-score": 9.32}
{"monomer.sequence": "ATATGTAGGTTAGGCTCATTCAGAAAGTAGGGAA", "PBM binding z-score": 5.75}
{"monomer.sequence": "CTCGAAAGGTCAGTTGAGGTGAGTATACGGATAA", "PBM binding z-score": 3.53}

* * *

# Test system: PPARg:RXRa 30nM:10nM, anti-RXR (NR concentration 30 nM, RXRa partner concentration 10 nM)
# test.method.notes: PBM binding z-score (relative to random genomic background probes); higher = stronger binding; sequences stand for … in GC…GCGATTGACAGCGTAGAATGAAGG
Catalogue of PBM binding z-score readings, one per entry.

{"monomer.sequence": "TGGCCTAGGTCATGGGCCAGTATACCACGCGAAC", "PBM binding z-score": 0.481}
{"monomer.sequence": "TTACCAAGGTGAACTGAGGTCGTTGATCCAACTC", "PBM binding z-score": 0.857}
{"monomer.sequence": "CTATGGAGGTTAAGGGGGTCATTCAGTTTGAAAG", "PBM binding z-score": 3.97}
{"monomer.sequence": "CCAGAAAGGTGAAAGGTAACTCAGTCTGGTACGC", "PBM binding z-score": 4.77}
{"monomer.sequence": "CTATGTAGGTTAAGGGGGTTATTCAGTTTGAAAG", "PBM binding z-score": 5.05}
{"monomer.sequence": "CCTAGTTGGTCAGGAGGTCACAAACCGGATATGA", "PBM binding z-score": 1.19}
{"monomer.sequence": "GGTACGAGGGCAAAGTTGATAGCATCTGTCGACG", "PBM binding z-score": 4.16}
{"monomer.sequence": "TCTAGTTGGTGACGGAGGTCACACACGACGGGTA", "PBM binding z-score": 3.36}
{"monomer.sequence": "ATACCAAGGTGATCGTGAGTTCGTTGATACTAAC", "PBM binding z-score": 0.101}
{"monomer.sequence": "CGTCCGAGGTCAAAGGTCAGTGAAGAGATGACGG", "PBM binding z-score": 8.58}
{"monomer.sequence": "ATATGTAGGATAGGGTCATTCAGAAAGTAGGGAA", "PBM binding z-score": 1.71}
{"monomer.sequence": "ATATGTAGGTTAGGGTTATTCAGAAAGTAGGGAA", "PBM binding z-score": 3.18}
